System: L1210 leukemia ip in BDF1 mice, survival T/C
assay protocol: NCI In Vivo Anticancer Drug Screen. Data for tumor model L1210 Leukemia (intraperitoneal) in B6D2F1 (BDF1) mice
stated conditions: endpoint: mean survival time; dose: 100.0 mg/kg/injection; schedule: Q01DX009 (ip); vehicle: Klucel (hydroxypropylcellulose) (HPC); higher = longer survival
Inconclusive results and toxic doses are left out.
T/C reference
value kind: T/C

[
  {
    "molecule": "O=C(NCCCOc1ccc([N+](=O)[O-])cc1Cl)Nc1cccc(S(=O)(=O)F)c1",
    "readout value": "92 % of control"
  },
  {
    "molecule": "Cc1cc(N=Cc2ccc(Cl)cc2)c(N=Cc2ccc(Cl)cc2)cc1C",
    "readout value": "108 % of control"
  },
  {
    "molecule": "CCCCCCCCCCCS(=O)(=O)C(CCOS(C)(=O)=O)COS(C)(=O)=O (centres undefined)",
    "readout value": "93 % of control"
  },
  {
    "molecule": "CCCCN(CCCC)c1ccc(N=C(C#N)c2ccc(N(CCCC)CCCC)cc2)cc1",
    "readout value": "96 % of control"
  },
  {
    "molecule": "CCCCCCCCCCCC(=O)Nc1ccc(S(=O)(=O)NNc2ccccc2)cc1[N+](=O)[O-]",
    "readout value": "95 % of control"
  },
  {
    "molecule": "CCOC(=O)C(C(=O)OCC)N1C(=O)c2ccccc2C1=O",
    "readout value": "100 % of control"
  },
  {
    "molecule": "O=C(O)C1=CCCc2ccc3ccccc3c21",
    "readout value": "96 % of control"
  },
  {
    "molecule": "CNC(=O)n1cnc(N)n1 (tested in a mixture with another compound)",
    "readout value": "96 % of control"
  },
  {
    "molecule": "Cc1ccc(NC(=O)c2ccc([N+](=O)[O-])cc2)cc1Cl",
    "readout value": "103 % of control"
  },
  {
    "molecule": "CC(Cl)CN(CC(C)Cl)C(=O)Oc1ccc([N+](=O)[O-])cc1 (centres undefined)",
    "readout value": "98 % of control"
  },
  {
    "molecule": "Cc1ccc(SP(=S)(Sc2ccc(C)cc2)Sc2ccc(C)cc2)cc1",
    "readout value": "97 % of control"
  },
  {
    "molecule": "O=C(Nc1cccc(Cl)c1Cl)Sc1ccccc1O",
    "readout value": "104 % of control"
  },
  {
    "molecule": "Nc1nc(-c2ccccc2N=NN2CCCCC2)nc2ccccc12",
    "readout value": "118 % of control"
  },
  {
    "molecule": "COc1cc(O)c(OC)cc1O",
    "readout value": "100 % of control"
  },
  {
    "molecule": "ClC1(c2ccccc2)c2ccc(Br)cc2-c2cc(Br)ccc21",
    "readout value": "103 % of control"
  },
  {
    "molecule": "O=C(Nc1ccccc1)Nc1ccc([N+](=O)[O-])cc1",
    "readout value": "91 % of control"
  },
  {
    "molecule": "Cc1c(Cl)c(=O)[nH]c2ccccc12",
    "readout value": "97 % of control"
  },
  {
    "molecule": "C=C(Br)CNC(N)=S",
    "readout value": "100 % of control"
  },
  {
    "molecule": "c1ccc([P+](Cc2nc3ccccc3[nH]2)(c2ccccc2)c2ccccc2)cc1",
    "readout value": "100 % of control"
  },
  {
    "molecule": "O=C(Nc1ccccc1F)C(c1ccccc1)c1ccccc1",
    "readout value": "103 % of control"
  },
  {
    "molecule": "O=C(/C=C/c1ccc(Cl)cc1)c1ccc(Br)cc1",
    "readout value": "94 % of control"
  },
  {
    "molecule": "Cc1ccc(C)c2c(Cl)c3c(C)ccc(C)c3nc12",
    "readout value": "98 % of control"
  },
  {
    "molecule": "c1ccc(SCN(CSc2ccccc2)c2ccccc2)cc1",
    "readout value": "106 % of control"
  },
  {
    "molecule": "O=C(NCCCl)Nc1cccc2cccnc12",
    "readout value": "100 % of control"
  }
]

###

System: L1210 leukemia ip in BDF1 mice, survival T/C
assay protocol: NCI In Vivo Anticancer Drug Screen. Data for tumor model L1210 Leukemia (intraperitoneal) in B6D2F1 (BDF1) mice
stated conditions: endpoint: mean survival time; dose: 200.0 mg/kg/injection; schedule: Q01DX009 (ip); vehicle: saline; higher = longer survival
Inconclusive results and toxic doses are left out. Square brackets hold non-standard residues; d marks the D form. Peptide text beside a SMILES is read from it. ξ: configuration not given here. ξN = NC(=O)CC(N)C(=O)O

[
  {
    "molecule": "O=[N+]([O-])c1ccc(-c2ncc3cnccn23)cc1",
    "T/C": "90 % of control"
  },
  {
    "molecule": "S=C(S)N1CCOCC1",
    "T/C": "106 % of control"
  },
  {
    "molecule": "COc1cc(Cl)ccc1NC(=O)Oc1ccc(NC(C)=O)cc1",
    "T/C": "92 % of control"
  },
  {
    "molecule": "COc1cc2c(cc1OC)C(=O)C(Br)N(S(=O)(=O)c1ccc(C)cc1)CC2 (stereo not given)",
    "T/C": "97 % of control"
  },
  {
    "molecule": "O=C1OC(=O)c2c(Br)c(Br)c(Br)c(Br)c21",
    "T/C": "97 % of control"
  },
  {
    "molecule": "CN(O)C(N)=O",
    "T/C": "158 % of control"
  },
  {
    "molecule": "Cc1ccc(C)c(NC(=O)Oc2ccc(-c3ccccc3)cc2)c1",
    "T/C": "95 % of control"
  },
  {
    "molecule": "O=C1CCC(=O)N1CCC(=O)N(C(=O)NC1CCCCC1)C1CCCCC1",
    "T/C": "101 % of control"
  },
  {
    "molecule": "COC(=O)C(N)CSC (stereo not given)",
    "T/C": "98 % of control"
  },
  {
    "molecule": "C/C(=C\\CN1C(=O)c2ccccc2C1=O)CCC(=O)O",
    "T/C": "111 % of control"
  },
  {
    "molecule": "CC1(C)N=C(N)N=C(N)N1c1ccc(CCC(=O)Nc2ccc(S(=O)(=O)F)cc2)cc1",
    "T/C": "100 % of control"
  },
  {
    "molecule": "CC(C)NNC(=O)C(C)N (stereo not given)",
    "T/C": "93 % of control"
  },
  {
    "molecule": "CCOC(=O)CNCc1ccc(F)cc1",
    "T/C": "103 % of control"
  },
  {
    "molecule": "O=C1OC2C(I)C3CCC2C1C3 (stereo not given)",
    "T/C": "102 % of control"
  },
  {
    "molecule": "N#Cc1c2c(c(O)[nH]c1=O)CCCC2",
    "T/C": "97 % of control"
  },
  {
    "molecule": "O/N=c1/cc(-c2ccc(Cl)cc2)ss1",
    "T/C": "89 % of control"
  },
  {
    "molecule": "COC(=O)C(=O)NCc1cnccn1",
    "T/C": "110 % of control"
  },
  {
    "molecule": "c1ccc2c3c(ccc2c1)Sc1ccc2ccccc2c1N3",
    "T/C": "98 % of control"
  },
  {
    "molecule": "Cc1cccc(CO)n1",
    "T/C": "108 % of control"
  },
  {
    "molecule": "CC(CNC(=O)CCBr)NC(=O)CCBr (stereo not given)",
    "T/C": "153 % of control"
  },
  {
    "molecule": "Nc1ccn(CC(=O)c2ccco2)c(=O)n1",
    "T/C": "105 % of control"
  },
  {
    "molecule": "O=C(O)CN(CC(=O)O)c1ccc(/C=C/c2ccc(N(CC(=O)O)CC(=O)O)c(S(=O)(=O)O)c2)cc1S(=O)(=O)O",
    "T/C": "105 % of control"
  },
  {
    "molecule": "NCC(=O)NC(CC(N)=O)C(=O)O (stereo not given) (H-Gly-[ξN]-OH)",
    "T/C": "102 % of control"
  },
  {
    "molecule": "CCn1c(O)c(C=N)c(=O)[nH]c1=O",
    "T/C": "93 % of control"
  },
  {
    "molecule": "O=C(Nc1ccc(F)cc1)Oc1ccc([N+](=O)[O-])cc1",
    "T/C": "95 % of control"
  },
  {
    "molecule": "CCCN(CCC)C(=O)c1ccncc1",
    "T/C": "102 % of control"
  },
  {
    "molecule": "C=C(Br)CN1C(=O)c2ccccc2C1=O",
    "T/C": "112 % of control"
  },
  {
    "molecule": "NCCc1ccc(F)cc1",
    "T/C": "97 % of control"
  },
  {
    "molecule": "C[C@]12CCC(=O)C=C1CC[C@@H]1[C@@H]2[C@@H](O)C[C@@]2(C)[C@H]1CC[C@]2(C)O",
    "T/C": "102 % of control"
  },
  {
    "molecule": "CS(=O)(=O)OCCN1C(=O)NC(c2ccccc2)(c2ccccc2)C1=O",
    "T/C": "96 % of control"
  }
]
